These entries and their values trace back to patent US11286238B2.

assay: Solubility determination in water; format: physicochemical; details: in 100 mL water

CHEMICAL SMILES: COc1ccc2c(c1)c(CCNC(C)=O)cn2CCCCS(=O)(=O)[O-].[Na+]
UNIT ABBREV: mg/mL
solubility: 1600
